Values compiled from ChEMBL document CHEMBL3988442.

Tested on: Trypanosoma cruzi
Assay details: Trypanosoma cruzi phosphomannomutase and mannose-1-phosphate guanylyltransferase assay
Format: functional
Design: scale not given: direction of the effect not stated beside the values
Condition description: 10 µM
Known Percent Effect of a selection of compounds
Hi! Could you send only the number? It should be in %, unit omitted.

See these solved cases before continuing.
Challenge: Determine from records and report Percent Effect for COc1c(CNC(c2nccn2C)C(C)C)c(C)nn1C (stereo unspecified)
Response given: -2.07

Challenge: Could you please provide reported Percent Effect for CC(NC(=O)NCCCN(C)S(C)(=O)=O)c1ccncc1 (stereo unspecified) ? Thanks!
Response given: -2.77

Challenge: Give the value of Percent Effect reported for the following: CCSCCNC(=O)C(c1cccc(C)c1)N(C)C (stereo unspecified)
Response given: 4.83

Challenge: Give me measured Percent Effect, please, for this compound: CCc1nnc2n1CCN(C(=O)CN(C)Cc1ccccc1)C2
Response given: 5.88

Challenge: Quick one: give measured Percent Effect for CC(=O)Nc1nc(C(=O)N2CCCC(n3ccnc3)C2)cs1 (stereo unspecified)
Response given: -6.44

Shift focus to the following entry.
Challenge: Quickly give me recorded Percent Effect for Cc1cn(-c2ccccc2)nc1NS(=O)(=O)c1cccc(C(=O)O)c1
Response given: -9.01

====

Target under test: Tyrosyl-tRNA synthetase, putative (Trypanosoma cruzi (strain CL Brener)) (UniProt Q4DSP6)
Sequence (whole entry): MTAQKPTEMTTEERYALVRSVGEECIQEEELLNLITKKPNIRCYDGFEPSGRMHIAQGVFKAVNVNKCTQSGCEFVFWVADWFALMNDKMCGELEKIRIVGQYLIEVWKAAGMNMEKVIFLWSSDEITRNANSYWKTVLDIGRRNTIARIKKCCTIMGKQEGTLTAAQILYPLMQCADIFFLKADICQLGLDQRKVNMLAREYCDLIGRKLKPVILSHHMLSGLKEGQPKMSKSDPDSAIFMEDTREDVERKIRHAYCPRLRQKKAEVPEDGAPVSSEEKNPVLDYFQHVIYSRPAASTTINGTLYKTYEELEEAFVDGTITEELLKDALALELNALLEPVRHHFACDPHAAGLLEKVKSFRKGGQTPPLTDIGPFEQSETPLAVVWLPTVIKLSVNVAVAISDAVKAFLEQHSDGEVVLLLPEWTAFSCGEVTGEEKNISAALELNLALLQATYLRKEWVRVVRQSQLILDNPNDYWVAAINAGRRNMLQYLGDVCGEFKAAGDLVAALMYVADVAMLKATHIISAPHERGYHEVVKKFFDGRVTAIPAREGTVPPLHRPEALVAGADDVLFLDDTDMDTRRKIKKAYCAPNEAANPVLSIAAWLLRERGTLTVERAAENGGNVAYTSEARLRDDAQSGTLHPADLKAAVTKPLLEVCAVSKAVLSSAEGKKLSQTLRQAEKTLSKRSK
Assay details: Trypanosoma cruzi tyrosyl tRNA synthetase (TcYRS) _High Tyrosine SOP; also: in the data most compounds retested in dose-response had high values
Type: functional
Set-up: scale not given: direction of the effect not stated beside the values
Condition description: 30 µM
Measured Percent Effect, listed per entry.
Write the number in % without appending the unit.

Reference set, count: 5
Challenge: Let me know recorded Percent Effect for O=C(Nc1cc(F)ccc1OCC1CCCO1)c1ccc(O)nc1 (configuration not stated) , thanks.
Response given: 3.81

Challenge: Return Percent Effect (reported value) for this compound: COc1cccc2cc(CNCc3ccnc(N4CCOCC4)c3)oc12
Response given: 1.48

Challenge: Indicate the recorded Percent Effect value for this compound: O=C(c1ccc(F)c(F)c1)N1CCCC(Nc2ccc(F)cc2)C1 (configuration not stated)
Response given: 6.88

Challenge: Please give measured Percent Effect of the following entry: Cc1cc(C2CCCN2C(=O)NCc2cccc(F)c2)on1 (configuration not stated)
Response given: 8.2

Challenge: Quick one: give measured Percent Effect for CC(O)CN1CCN(C(=O)c2cc3ccccc3[nH]c2=O)CC1 (configuration not stated)
Response given: 1.06

---
Challenge: For the compound Fc1ccc(CN2CCO[C@H]3[C@H](OCC4CC4)CC[C@@H]32)cc1 , give its reported Percent Effect.
Response given: 2.08

Challenge: Supply recorded Percent Effect for Cc1noc(C)c1C(=O)NCC(C)N(C)C (configuration not stated) here.
Response given: 3.96

Challenge: Note Percent Effect for the compound shown: COc1c(C2CCCN2C(=O)c2ccc3cc[nH]c3c2)c(C)nn1C (configuration not stated)
Response given: 4.76

Challenge: Output Percent Effect of COc1cc(N2C[C@H]3OCC[C@H]3[C@H](C(=O)NC3CC3)C2)ncn1
Response given: 9.38

Challenge: Supply measured Percent Effect of CC(=O)N1CCCC(c2cnc(-c3c(C)nn(C)c3C)cn2)C1 (configuration not stated) in your reply.
Response given: 2.13

====

Target under test: Ubiquitin-activating enzyme e1, putative (Leishmania donovani (strain BPK282A1))
Assay details: Leishmania donovani Ubiquitin Activating Enzyme (LdE1)
Assay type: functional
Parameters: scale not given: direction of the effect not stated beside the values
Condition description: 30 µM
Potency and affinity values are given separately.
Collected Percent Effect values appear next to each entry.
Field: value (include unit after the number)

Challenge: Please look at this compound and report its Percent Effect: c1cncc(COCc2nnc3n2CCN(Cc2ccoc2)C3)c1
Response given: 18.2%

Challenge: For the compound COCC1CC2(CCN(C(=O)c3cccc(C)c3)CC2)CO1 (centres undefined) , give its reported Percent Effect.
Response given: 5.2%

Challenge: Give recorded Percent Effect. NC(=O)c1ccc2c(c1)nc1n2CCN(Cc2ccco2)C1
Response given: 21.1%

New cases:
Challenge: Quote Percent Effect reported for COc1c(C2CCCN2C(=O)c2ccc3cc[nH]c3c2)c(C)nn1C (centres undefined) please.
Response given: 18.2%

Challenge: Provide one value: measured Percent Effect of COc1cccc2c1OCC(CNC(=O)CSc1nc(N)n[nH]1)C2 (centres undefined)
Response given: 0%

Challenge: Tell us which Percent Effect value is on record for COc1ccc2c(c1)CCN(CCC(=O)O)CC2
Response given: 16.2%

Challenge: Given the compound CN(C)CC1CN(c2ncnc3[nH]ccc23)CCO1 (centres undefined) , write its reported Percent Effect.
Response given: 16.5%

Challenge: Please report Percent Effect for the following compound: CCn1cnnc1CNC(=O)c1cc(Cl)ccc1OC
Response given: 8.86%

Challenge: Tell me measured Percent Effect for CC(C)c1nc(C(=O)N2CCOCC2CC(=O)c2ccco2)c[nH]1 (centres undefined) please.
Response given: -2.63%

Challenge: Fill in reported Percent Effect for this entry: CCCN(CC(=O)NC)C(=O)c1ccc(-c2ccsc2)nc1C
Response given: 6.94%

Challenge: Specify measured Percent Effect for Cc1cn2c(n1)CCC(NC(=O)CCn1ccnn1)C2 (centres undefined) .
Response given: 5.26%

====

Organism: Homo sapiens
Assay details: To identify inhibition of the IFN signalling (Jak-Stat) pathway via expression of an eGFP reporter gene under the control of an IFN-stimulated response element (ISRE) containing MxA promoter.
Assay type: functional
Design: scale not given: direction of the effect not stated beside the values
Condition description: 30 µM
Quantity measured: Percent Effect (%)
Hi! Could you send only the number? It should be in %, unit omitted.

Look over these answered cases.
Challenge: Return value of Percent Effect for input CNS(=O)(=O)c1ccc(CNC(=O)NCC2CCOC2)cc1 (stereo not drawn) , no commentary.
Response given: -1.37

Challenge: Note down Percent Effect recorded for COCc1ccccc1CNc1nnc(C)c(C)c1C#N
Response given: 30.3

Challenge: Return Percent Effect for the following compound: CC(C)c1nccn1C1CCCN(C(=O)c2cccc3c2OCO3)C1 (stereo not drawn)
Response given: 9.02

Challenge: Answer with reported Percent Effect of O=C(c1ccco1)N1CCC2(CCOC2)C1 (stereo not drawn)
Response given: -9.81

Challenge: Item O=c1cc(CN2CCCC2)nc2n1CCCN(Cc1ccsc1)C2 : provide Percent Effect
Response given: -8.49

Challenge: Let me know recorded Percent Effect for Cc1nc2cc(C(=O)N3CCCC(n4cncn4)C3)ccc2n1C (stereo not drawn) , thanks.
Response given: 0.593

***
Challenge: Annotate the compound CS(=O)(=O)N1CCC(C(=O)NCCNc2ncccn2)CC1 with its measured Percent Effect.
Response given: 14.8

Challenge: State its Percent Effect for this compound: Cc1cc(C)c(CNC(=O)N2CCCC2c2ccccc2)c(=O)[nH]1 (stereo not drawn)
Response given: -0.586

Challenge: Given COCCC1(CO)CCCN(Cc2ccc(F)c(C)c2)C1 (stereo not drawn) , respond with its Percent Effect.
Response given: -4.5

Challenge: Could you please provide reported Percent Effect for Cc1occc1C(=O)Nc1ccnc(OC2CCOC2)c1 (stereo not drawn) ? Thanks!
Response given: 3.88

Challenge: Recall and state the measured Percent Effect for CN1CCOC(CNCc2coc(-c3ccccc3)n2)C1 (stereo not drawn) .
Response given: 24.4

Challenge: Provide one value: measured Percent Effect of O=C(C1CCOC1)N1C[C@H]2CN(Cc3nccs3)C[C@H]2C1 (stereo partly drawn)
Response given: -4.44

Challenge: Name the recorded Percent Effect of the item COc1c(CNC2CCN(C(C)(C)C)CC2)c(C(C)C)nn1C in your answer.
Response given: -8.8

Challenge: Give the value of Percent Effect reported for the following: Cn1c(CN2CCOCC2)nnc1C1CCN(C(=O)C2CCCC2)CC1
Response given: 2.19

Challenge: Provide Percent Effect value for the following compound: Cc1cc(N2CCCC2c2cnccn2)ncn1 (stereo not drawn)
Response given: 5.1

Challenge: Could you please provide reported Percent Effect for Cn1c(CN2CCN(CC3CC3)CC2)nnc1C1CCC1 ? Thanks!
Response given: -5.43

Challenge: Note down Percent Effect recorded for COc1c(CNCc2ccc(C(=O)N(C)C)cc2)c(C)nn1C
Response given: 27.1

Challenge: State, in one line, measured Percent Effect of Cc1ccc(CC(=O)N2CCCC(c3cc(C)[nH]n3)C2)cn1 (stereo not drawn)
Response given: 12.1
